target: hNPY2R (Homo sapiens, UniProt P49146); construct: expressed in transfected cells; host or cells: HEK-293 cells carrying a CRE-luciferase reporter gene; assay: hNPY2R CreLuc reporter gene assay in 0.5% and 100% plasma; format: cell-based; settings: CreLuc reporter gene assay, 0.5% human plasma; read-out: hNPY2R 0.5% hP
Sequence (P49146 whole entry): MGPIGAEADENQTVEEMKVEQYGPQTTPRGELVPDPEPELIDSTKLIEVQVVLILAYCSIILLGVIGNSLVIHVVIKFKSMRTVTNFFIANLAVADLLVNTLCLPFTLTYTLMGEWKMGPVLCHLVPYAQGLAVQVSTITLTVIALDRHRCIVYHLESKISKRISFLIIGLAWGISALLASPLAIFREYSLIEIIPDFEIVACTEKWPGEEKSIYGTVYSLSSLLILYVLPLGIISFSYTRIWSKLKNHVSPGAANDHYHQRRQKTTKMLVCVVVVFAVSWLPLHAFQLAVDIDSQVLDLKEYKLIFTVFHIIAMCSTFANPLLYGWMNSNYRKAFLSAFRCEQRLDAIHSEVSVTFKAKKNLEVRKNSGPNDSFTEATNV
Starred links: 1 amine or outer side, 2 acyl side, 3 side chain; linkers in the order of their positions; H or OH if unused. Non-standard residues stand in square brackets, D forms with d. Groups on a side chain read outwards from the residue. *: point of attachment. C20 diacid = O=C(O)CCCCCCCCCCCCCCCCCCC(=O)*; C18 diacid = O=C(O)CCCCCCCCCCCCCCCCC(=O)*; γGlu = O=C(O)[C@H](CCC(=O)[*:2])N[*:1]; εLys = N[C@@H](CCCCN[*:1])C(=O)[*:2]; AEEA = NCCOCCOCC(=O)O; Aib = CC(C)(N)C(=O)O
Exercise: for every item that follows, state its recorded pEC50.
Answers are plain numbers, as −log10 of the molar value.

These recorded examples may help you get a feel for the data.
H-Y[Aib]EGTFTSDYSI[Aib]LEEEAQ[Aib]AFVQWLIK([εLys-εLys-γGlu-γGlu-γGlu-γGlu-γGlu-C20 diacid])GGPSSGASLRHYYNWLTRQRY-NH2 [Compound 7]: 7.77
H-Y[Aib]EGTFTSDYSI[Aib]LEKQAQ[Aib]AFVQWLIK([γGlu-γGlu-γGlu-γGlu-γGlu-C20 diacid])GGPESPASLRHYYNWLTRQRY-NH2 [Compound 11]: 7.99
H-Y[Aib]EGTFTSDYSI[Aib]LEKQAQ[Aib]AFVQWLIK([εLys-γGlu-γGlu-γGlu-γGlu-γGlu-C18 diacid])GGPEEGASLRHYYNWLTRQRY-NH2 [Compound 143]: 7.88
H-Y[Aib]EGTFTSDYSI[Aib]LEKQAQ[Aib]AFVEWLIK([AEEA-AEEA-γGlu-γGlu-γGlu-γGlu-C18 diacid])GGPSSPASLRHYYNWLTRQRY-NH2 [Compound 158]: 7.80

Let us move to another entry and its pEC50.
Task item: Consider the substance H-Y[Aib]EGTFTSDYSI[Aib]LEKQAQ[Aib]AFVEWLIK([εLys-γGlu-γGlu-γGlu-γGlu-γGlu-γGlu-C20 diacid])GGPSEYESLRHYYNWLTRQRY-NH2 [Compound 93] and give its recorded pEC50.
Reply: 7.82

Hey, just so you know, these numbers are from patent US20240247080A1.
